Tested on: THRa homodimer (NR concentration 90 nM)
Test: PBM binding z-score (relative to random genomic background probes); higher = stronger binding; sequences stand for … in GC…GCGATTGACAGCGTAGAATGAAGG
Threshold check on PBM binding z-score: at or above -0.03 gives Condition met, strictly below gives Condition not met.

Observe how each entry below is paired with its result.
{"sequence": "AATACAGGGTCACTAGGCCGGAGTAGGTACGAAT", "assay.target": "THRa homodimer (NR concentration 90 nM)", "group.label": "Condition met"}
{"sequence": "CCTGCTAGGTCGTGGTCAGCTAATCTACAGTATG", "assay.target": "THRa homodimer (NR concentration 90 nM)", "group.label": "Condition met"}

# input Threshold query (PBM binding z-score >= -0.03) on `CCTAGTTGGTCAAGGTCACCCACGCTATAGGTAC`
# output Condition met

# input Threshold query (PBM binding z-score >= -0.03) on `CCGACTGGGGCATAAGGATACCATAAGCCAGCCC`
# output Condition met

# input Threshold query (PBM binding z-score >= -0.03) on `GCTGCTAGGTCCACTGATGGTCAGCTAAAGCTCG`
# output Condition not met

====

Reported PBM binding z-score is given for each of the following sequences.
Tested on: RARg homodimer (NR concentration 270 nM)
Assay: PBM binding z-score (relative to random genomic background probes); higher = stronger binding; sequences stand for … in GC…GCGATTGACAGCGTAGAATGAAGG
Just the number, please, no unit attached.

Examples with answers:
{"sequence": "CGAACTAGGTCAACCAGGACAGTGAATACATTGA", "recorded.metric": "PBM binding z-score", "value.measured": 5.25}
{"sequence": "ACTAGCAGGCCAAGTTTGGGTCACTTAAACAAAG", "recorded.metric": "PBM binding z-score", "value.measured": 1.45}
{"sequence": "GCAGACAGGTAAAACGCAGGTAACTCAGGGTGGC", "recorded.metric": "PBM binding z-score", "value.measured": -0.43}
{"sequence": "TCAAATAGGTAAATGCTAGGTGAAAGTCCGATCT", "recorded.metric": "PBM binding z-score", "value.measured": 0.304}

# input Read off the recorded PBM binding z-score for `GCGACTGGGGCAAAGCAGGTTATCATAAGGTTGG`
# output 0.655

# input Read off the recorded PBM binding z-score for `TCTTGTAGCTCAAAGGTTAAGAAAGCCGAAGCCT`
# output 0.435

# input Read off the recorded PBM binding z-score for `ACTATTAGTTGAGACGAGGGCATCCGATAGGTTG`
# output 0.799

# input Read off the recorded PBM binding z-score for `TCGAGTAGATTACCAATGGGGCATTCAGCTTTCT`
# output -0.494

# input Read off the recorded PBM binding z-score for `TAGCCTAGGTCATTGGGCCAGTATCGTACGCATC`
# output 4

====

Reported PBM binding z-score is given for each of the following sequences.
System: PPARg:RXRa 270nM:90nM, anti-RXR (NR concentration 270 nM, RXRa partner concentration 90 nM)
Assay: PBM binding z-score (relative to random genomic background probes); higher = stronger binding; sequences stand for … in GC…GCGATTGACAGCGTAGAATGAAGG
Just the number, please, no unit attached.

{"sequence": "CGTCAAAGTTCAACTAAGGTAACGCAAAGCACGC", "value.measured": 5.67}
{"sequence": "CCGACTGGGGCATAAGGTTCCCATAAGCCAGCCC", "value.measured": 1.45}
{"sequence": "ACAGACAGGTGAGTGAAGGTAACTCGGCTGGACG", "value.measured": 0.0767}
{"sequence": "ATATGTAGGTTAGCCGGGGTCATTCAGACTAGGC", "value.measured": 5.96}
{"sequence": "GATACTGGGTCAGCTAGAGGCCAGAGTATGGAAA", "value.measured": 3.8}

# input Read off the recorded PBM binding z-score for `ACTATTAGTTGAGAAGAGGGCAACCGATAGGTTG`
# output 0.246

# input Read off the recorded PBM binding z-score for `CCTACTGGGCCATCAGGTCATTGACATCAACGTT`
# output 3.54

# input Read off the recorded PBM binding z-score for `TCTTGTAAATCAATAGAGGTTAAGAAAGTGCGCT`
# output 1.82

# input Read off the recorded PBM binding z-score for `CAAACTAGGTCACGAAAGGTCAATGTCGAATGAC`
# output 8.29

# input Read off the recorded PBM binding z-score for `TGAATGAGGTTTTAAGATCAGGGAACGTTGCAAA`
# output 0.12

# input Read off the recorded PBM binding z-score for `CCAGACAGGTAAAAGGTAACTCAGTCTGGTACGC`
# output 3.82

# input Read off the recorded PBM binding z-score for `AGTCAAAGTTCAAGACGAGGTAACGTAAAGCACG`
# output 6.17

# input Read off the recorded PBM binding z-score for `TCTGCTAGGTCAGTTGATCAGCTAACGAGCTGCC`
# output 1.28

# input Read off the recorded PBM binding z-score for `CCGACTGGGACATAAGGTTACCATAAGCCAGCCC`
# output 2.59

# input Read off the recorded PBM binding z-score for `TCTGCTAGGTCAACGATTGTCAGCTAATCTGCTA`
# output 2.93

# input Read off the recorded PBM binding z-score for `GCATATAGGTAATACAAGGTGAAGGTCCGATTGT`
# output 1.12

# input Read off the recorded PBM binding z-score for `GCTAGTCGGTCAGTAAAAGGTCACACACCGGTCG`
# output 4.83

# input Read off the recorded PBM binding z-score for `ATCGAAAGGGCGAGGTGAGTATAGAGAAAGGGAA`
# output 0.445

====

Reported PBM binding z-score is given for each of the following sequences.
Test system: RARa homodimer (NR concentration 270 nM)
Experiment: PBM binding z-score (relative to random genomic background probes); higher = stronger binding; sequences stand for … in GC…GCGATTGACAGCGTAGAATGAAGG

Examples with answers:
{"sequence": "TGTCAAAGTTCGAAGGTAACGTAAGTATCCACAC", "assay.target": "RARa homodimer (NR concentration 270 nM)", "value.measured": 0.23}
{"sequence": "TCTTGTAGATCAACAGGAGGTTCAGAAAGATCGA", "assay.target": "RARa homodimer (NR concentration 270 nM)", "value.measured": -0.572}
{"sequence": "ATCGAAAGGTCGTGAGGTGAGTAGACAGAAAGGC", "assay.target": "RARa homodimer (NR concentration 270 nM)", "value.measured": 0.372}
{"sequence": "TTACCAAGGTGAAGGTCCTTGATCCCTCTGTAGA", "assay.target": "RARa homodimer (NR concentration 270 nM)", "value.measured": -0.146}
{"sequence": "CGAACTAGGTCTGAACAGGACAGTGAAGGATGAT", "assay.target": "RARa homodimer (NR concentration 270 nM)", "value.measured": -0.454}

# input Read off the recorded PBM binding z-score for `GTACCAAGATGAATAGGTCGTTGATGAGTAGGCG`
# output 0.21

# input Read off the recorded PBM binding z-score for `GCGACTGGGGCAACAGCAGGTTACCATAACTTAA`
# output -0.561

# input Read off the recorded PBM binding z-score for `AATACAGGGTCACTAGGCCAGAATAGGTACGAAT`
# output 1.45

# input Read off the recorded PBM binding z-score for `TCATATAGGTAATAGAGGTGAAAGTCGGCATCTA`
# output 1.02

# input Read off the recorded PBM binding z-score for `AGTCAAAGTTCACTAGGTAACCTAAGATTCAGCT`
# output 1.73

# input Read off the recorded PBM binding z-score for `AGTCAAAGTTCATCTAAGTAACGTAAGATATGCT`
# output 1.03

====

System: PPARg DBDmut:RXRa IVT, anti-PPARg (DBD mutation: PPARg1 K132A/R137A, NR concentration 270 nM, RXRa partner concentration 90 nM)
Assay: PBM binding z-score (relative to random genomic background probes); higher = stronger binding; sequences stand for … in GC…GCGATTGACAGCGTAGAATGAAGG
# class assignment by measured PBM binding z-score: category 1: < -0.4; category 2: ≥ -0.4 and < 0.8; category 3: ≥ 0.8

Observe how each entry below is paired with its result.
{"sequence": "GGAACGAGGGCAAAGATGATAGCATCTGTCGACG", "group.label": "category 1"}
{"sequence": "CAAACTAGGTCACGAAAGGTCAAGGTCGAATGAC", "group.label": "category 3"}
{"sequence": "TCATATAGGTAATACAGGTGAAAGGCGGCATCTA", "group.label": "category 3"}

# input Band for `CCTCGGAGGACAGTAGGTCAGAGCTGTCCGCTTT` ?
# output category 1

# input Band for `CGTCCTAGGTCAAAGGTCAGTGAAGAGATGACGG` ?
# output category 2

# input Band for `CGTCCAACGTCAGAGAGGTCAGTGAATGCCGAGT` ?
# output category 1

# input Band for `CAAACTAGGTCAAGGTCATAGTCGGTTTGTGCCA` ?
# output category 3

# input Band for `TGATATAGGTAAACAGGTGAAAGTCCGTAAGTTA` ?
# output category 3

# input Band for `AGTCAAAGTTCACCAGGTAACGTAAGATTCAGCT` ?
# output category 3

# input Band for `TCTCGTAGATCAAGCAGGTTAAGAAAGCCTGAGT` ?
# output category 1

# input Band for `TATACAGGGTCAAAGTCCAGAGTACGAATGTCGA` ?
# output category 3

# input Band for `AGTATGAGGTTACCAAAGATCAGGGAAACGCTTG` ?
# output category 2
